Several publications report IC50 on UniProtKB P00747; those values are gathered here.
Give the number; µM is assumed, so skip it.

Ask: Form entry - test system: UniProtKB P00747; read-out: IC50; compound: "CC1(C)COc2c(COc3ccccc3CC(=O)O)cc(-c3ccc4c(c3)[C@H](N)CO4)cc21"
Reply: 6.3

Ask: Form entry - test system: UniProtKB P00747; read-out: IC50; compound: "CCCc1ccc(N2CC(=O)N(Cc3cc4cnc(C(=O)N[C@H](C#N)CCCCN)nc4n3C)C2=O)cc1"
Reply: 330

Ask: Form entry - test system: UniProtKB P00747; read-out: IC50; compound: CCO[C@@H]1[C@@H](NC(=O)C2CC3CCC(O)CC3N2C(=O)[C@@H](Cc2ccc(O)cc2)NC(=O)[C@H](O)Cc2ccc(O)cc2)CCCN1C(=N)N (stereo partly specified)
Reply: 99.9

Ask: Form entry - test system: UniProtKB P00747; read-out: IC50; compound: "COC(=O)[C@@H](NC(=O)[C@@H](NC(=O)CC[C@H]1CCC[C@@H](NC(=O)[C@@H](NC(=O)[C@@H](NC(=O)OCc2ccccc2)C(=O)[C@@H](N)Cc2c[nH]c3ccccc23)C(=O)[C@@H](N)Cc2c[nH]c3ccccc23)C1=O)C(=O)[C@@H](N)Cc1c[nH]c2ccccc12)C(=O)[C@@H](N)C(C)C"
Reply: 14.1

====

Several publications report pIC50 on Plasminogen (Homo sapiens, UniProt P00747); those values are gathered here.
pIC50 is a log-scale quantity: -log10 of the concentration expressed in molar.

Ask: Form entry - test system: Plasminogen (Homo sapiens, UniProt P00747); read-out: pIC50; compound: C[C@H](C(=O)N1CCC[C@H]1C(=O)NC(C=O)CCCNC(=N)N)c1ccccc1 (stereo partly drawn)
Reply: 4.74

Ask: Form entry - test system: Plasminogen (Homo sapiens, UniProt P00747); read-out: pIC50; compound: "CC1(C)COc2c(COc3ccccc3CC(=O)O)cc(-c3ccc4c(c3)[C@H](N)CCO4)cc21"
Reply: 4.85

Ask: Form entry - test system: Plasminogen (Homo sapiens, UniProt P00747); read-out: pIC50; compound: "N=C(N)c1ccc(CNC(=O)[C@@H]2C=CCN2C(=O)[C@@H](CC2CCCCC2)NCC(=O)O)s1"
Reply: 5.91

Ask: Form entry - test system: Plasminogen (Homo sapiens, UniProt P00747); read-out: pIC50; compound: CC[C@H](C(=O)N1CCC[C@H]1C(=O)NC(C=O)CCCNC(=N)N)c1ccccc1 (stereo partly drawn)
Reply: 4.68

Ask: Form entry - test system: Plasminogen (Homo sapiens, UniProt P00747); read-out: pIC50; compound: "Cn1c(CN2C(=O)CN(c3ccc(C(N)=O)cc3)C2=O)cc2cnc(C(=O)N[C@H](C#N)CCCCN)nc21"
Reply: 3.80

Ask: Form entry - test system: Plasminogen (Homo sapiens, UniProt P00747); read-out: pIC50; compound: COC(=O)c1ccccc1CS(=O)(=O)N[C@H](CC1CCCN(C(=N)N)C1)C(=O)NCC(=O)N[C@H]1CCCN(C(=N)N)C1O (stereo in doubt; form 1)
Reply: 5.71

====

Several publications report IC50 on Plasminogen (Homo sapiens); those values are gathered here.

Ask: Which measured IC50 value corresponds to "NNCc1ccc(C(=O)Nc2ccc(Cl)cc2C(=O)Nc2ccc(Cl)cn2)cc1" ?
Reply: > 11 µM

Ask: Which measured IC50 value corresponds to "Cc1cc(C(=O)Nc2ccc(-c3ccccc3S(N)(=O)=O)cc2)n(-c2cc3ccccc3cc2S(N)(=O)=O)n1" ?
Reply: > 11 µM

Ask: Which measured IC50 value corresponds to "N=C1OCCN1Cc1ccc(C(=O)Nc2ccc(Cl)cc2C(=O)Nc2ccc(Cl)cn2)cc1" ?
Reply: > 11 µM

Ask: Which measured IC50 value corresponds to "Nc1nc(-c2ccccn2)nn1C(=O)c1ccc2ccccc2c1" ?
Reply: > 5 µM
